Values from patent US5302611A

Tested on: neutrophil granulocytes (PMNL)
Experiment: Granulocytic test modified after BRANDT (phagocytosis of yeast particles)
Assay type: cell-based, human
Conditions: concentration 10^-2
Description: 1. […] They represent about 60-70% of all leucocytes in the human blood. The phagocytosis effect of all these granulocytes can be measured in vitro according to a method developed by BRAND (Scand. J. Haematol. Suppl. 2, 1967) and modified by TYMPNER (Munich Med. Weekly 8, 251, 1978). […] 100 granulocytes were counted out per object carrier, and it was determined how many yeast particles of the individual cells had been phagocytised. […]
Experimental endpoint: percental phagocytosis increase

Consider the worked cases shown below.
Molecule	percental phagocytosis increase
C=C[C@]12CN(C)[C@@H]3[C@H]4CO[C@H](C[C@H]41)[C@]1(C(=O)Nc4ccccc41)[C@@H]32 [Gelsemine, gelsemine, reference compound]	22.1%
COC(=O)C1=COC(C)C2CN3CCC4(C(=O)Nc5ccccc54)C3CC12 (stereo not drawn) [Speciophylline, speciophylline]	10.5%
COC(=O)C1=COC(C)C2CN3CCC4(C(=O)Nc5ccccc54)C3CC12 (single isomer, unassigned; isomer b) [Pteropodine, allo-pteropodine, isomer B]	11.2%

[ask] Given CCC1CN2CCC3(C(=O)Nc4ccccc43)C2CC1C(=COC)C(=O)OC (single isomer, unassigned; isomer a) [Isorhynchophylline, normal-isorhynchophylline, isomer A] , report its percental phagocytosis increase on neutrophil granulocytes (PMNL).
[reply] 10.8%

[ask] Given COC(=O)C1=COC(C)C2CN3CCC4(C(=O)Nc5ccccc54)C3CC12 (single isomer, unassigned; isomer a) [Isopteropodine, allo-isopteropodine, isomer A] , report its percental phagocytosis increase on neutrophil granulocytes (PMNL).
[reply] 23.4%

[ask] Given COC(=O)C1=COC(C)C2CN3CCC4(C(=O)Nc5ccccc54)C3CC12 (single isomer, unassigned; isomer a) [Isomitraphylline, normal-isomitraphylline, isomer A] , report its percental phagocytosis increase on neutrophil granulocytes (PMNL).
[reply] 16.5%

* * *

System: neutrophil granulocytes (PMNL)
Test: Granulocytic test modified after BRANDT (phagocytosis of yeast particles)
Assay type: cell-based, human
Conditions: concentration 10^-5
# Lookup of reported percental phagocytosis increase keyed by entry
All answers are understood in %, so give the number only.

Consider the worked cases shown below.
Molecule	Recorded number
CCC1CN2CCC3(C(=O)Nc4ccccc43)C2CC1C(=COC)C(=O)OC (single isomer, unassigned; isomer a) [Isorhynchophylline, normal-isorhynchophylline, isomer A]	16.1
COC(=O)C1=COC(C)C2CN3CCC4(C(=O)Nc5ccccc54)C3CC12 (single isomer, unassigned; isomer a) [Isomitraphylline, normal-isomitraphylline, isomer A]	19.4
COC(=O)C1=COC(C)C2CN3CCC4(C(=O)Nc5ccccc54)C3CC12 (single isomer, unassigned; isomer b) [Pteropodine, allo-pteropodine, isomer B]	23.0
C=C[C@]12CN(C)[C@@H]3[C@H]4CO[C@H](C[C@H]41)[C@]1(C(=O)Nc4ccccc41)[C@@H]32 [Gelsemine, gelsemine, reference compound]	8.2
COC(=O)C1=COC(C)C2CN3CCC4(C(=O)Nc5ccccc54)C3CC12 (stereo not drawn) [Speciophylline, speciophylline]	35.3

Could you now look at the following molecule, please?
[ask] Given COC(=O)C1=COC(C)C2CN3CCC4(C(=O)Nc5ccccc54)C3CC12 (single isomer, unassigned; isomer a) [Isopteropodine, allo-isopteropodine, isomer A] , report its percental phagocytosis increase on neutrophil granulocytes (PMNL).
[reply] 38.2

* * *

System: neutrophil granulocytes (PMNL)
Assay: Granulocytic test modified after BRANDT (phagocytosis of yeast particles)
Assay type: cell-based, human
Settings: concentration 10^-4
# Lookup of reported percental phagocytosis increase keyed by entry
All answers are understood in %, so give the number only.

Compound	percental phagocytosis increase, %
C=C[C@]12CN(C)[C@@H]3[C@H]4CO[C@H](C[C@H]41)[C@]1(C(=O)Nc4ccccc41)[C@@H]32 [Gelsemine, gelsemine, reference compound]	33.7
COC(=O)C1=COC(C)C2CN3CCC4(C(=O)Nc5ccccc54)C3CC12 (single isomer, unassigned; isomer a) [Isomitraphylline, normal-isomitraphylline, isomer A]	27.0
COC(=O)C1=COC(C)C2CN3CCC4(C(=O)Nc5ccccc54)C3CC12 (single isomer, unassigned; isomer b) [Pteropodine, allo-pteropodine, isomer B]	26.1
COC(=O)C1=COC(C)C2CN3CCC4(C(=O)Nc5ccccc54)C3CC12 (single isomer, unassigned; isomer a) [Isopteropodine, allo-isopteropodine, isomer A]	55.9
COC(=O)C1=COC(C)C2CN3CCC4(C(=O)Nc5ccccc54)C3CC12 (stereo not drawn) [Speciophylline, speciophylline]	26.0

Could you now look at the following compound, please?
[ask] Entry CCC1CN2CCC3(C(=O)Nc4ccccc43)C2CC1C(=COC)C(=O)OC (single isomer, unassigned; isomer a) [Isorhynchophylline, normal-isorhynchophylline, isomer A] needs its percental phagocytosis increase filled in; supply it.
[reply] 27.3
